- EXPERIMENTAL TARGET: Gal(b1-4)GlcNAc(b1-2)Man(a1-3)[Gal(b1-4)GlcNAc(b1-2)Man(a1-6)]Man(b1-4)GlcNAc(b1-4)GlcNAc
- TEST PROTOCOL: glycan array binding signal (z-score within array); higher = stronger binding
- TEST CONDITIONS: glycan notation: IUPAC condensed, linker removed
The sample as a whole holds a higher share of the strongest signals than the screen did.
RESULT TYPE: glycan array binding signal (z-score)
No unit in the answer, please; the number alone is enough.

The examples below pair each entry with its known result.
rCnSL-A (Clitocybe nebularis) (protein) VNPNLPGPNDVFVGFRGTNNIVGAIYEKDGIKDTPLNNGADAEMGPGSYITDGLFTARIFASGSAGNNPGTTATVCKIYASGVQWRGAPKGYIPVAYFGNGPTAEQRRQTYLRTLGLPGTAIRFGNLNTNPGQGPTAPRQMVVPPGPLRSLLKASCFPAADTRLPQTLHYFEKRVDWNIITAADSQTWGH	-0.203
NPA (Narcissus pseudonarcissus), C0HM45 (protein) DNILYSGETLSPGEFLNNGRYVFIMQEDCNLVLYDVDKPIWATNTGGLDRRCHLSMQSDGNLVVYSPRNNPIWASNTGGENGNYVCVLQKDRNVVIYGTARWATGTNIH	0.602
CM2 (Cordyceps militaris) (protein) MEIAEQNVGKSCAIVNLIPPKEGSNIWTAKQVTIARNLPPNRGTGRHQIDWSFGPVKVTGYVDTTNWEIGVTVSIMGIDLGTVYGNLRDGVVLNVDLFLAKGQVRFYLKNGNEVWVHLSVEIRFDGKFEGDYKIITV	-1.28

Quick one: glycan array binding signal (z-score) for FBG5 (Homo sapiens), Q8NI29 (protein) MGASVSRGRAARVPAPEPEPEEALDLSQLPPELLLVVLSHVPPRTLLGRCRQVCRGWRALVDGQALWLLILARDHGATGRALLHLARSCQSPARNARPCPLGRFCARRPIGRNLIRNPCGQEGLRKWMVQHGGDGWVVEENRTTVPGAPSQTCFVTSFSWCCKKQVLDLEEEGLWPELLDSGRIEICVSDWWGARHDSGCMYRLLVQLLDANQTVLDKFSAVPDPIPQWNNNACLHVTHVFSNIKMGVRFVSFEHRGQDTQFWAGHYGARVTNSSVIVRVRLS ?
-0.102

Quick one: glycan array binding signal (z-score) for PMA (Polygonatum multiflorum) (protein) LLTTTLFVFISSTRSLASTNVLYSDVGNAILNAKESLIYGDYRLDMQSDCNLVLYNKAAPYWASGTRWSWGGNCHLNLQSNGELVMYAYLGRTRIAIWRSGIISATGSYALVLKYDGALHVHGPSLWSTNATGPTTPTTASWSIDSTLWSGDVATIGPTIANGDYKLELLDTCNLTLSNTKTGQVLWYTNTTDWVHDCYVNIEGNGELKIKYLGGATLWSNKVGAGYTNNYVLGLRPDGKLDTYNAPIWSPTIGPGVHVAPAVYNASSNAVAAEGNGEKIAMVTGRAKNST ?
7.37

Quick one: glycan array binding signal (z-score) for Gal 9 (Homo sapiens), O00182 (protein) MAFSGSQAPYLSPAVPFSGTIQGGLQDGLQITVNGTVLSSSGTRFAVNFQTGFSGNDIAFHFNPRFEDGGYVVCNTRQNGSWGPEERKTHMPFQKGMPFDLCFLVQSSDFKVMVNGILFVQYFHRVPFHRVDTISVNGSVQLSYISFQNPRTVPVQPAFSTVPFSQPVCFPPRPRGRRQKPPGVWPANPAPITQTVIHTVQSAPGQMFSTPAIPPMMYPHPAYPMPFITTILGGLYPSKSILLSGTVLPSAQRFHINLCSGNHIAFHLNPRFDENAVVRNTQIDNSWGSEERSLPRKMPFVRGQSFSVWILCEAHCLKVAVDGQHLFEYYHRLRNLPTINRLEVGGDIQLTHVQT ?
2.94

Quick one: glycan array binding signal (z-score) for CD23 (Homo sapiens) (protein) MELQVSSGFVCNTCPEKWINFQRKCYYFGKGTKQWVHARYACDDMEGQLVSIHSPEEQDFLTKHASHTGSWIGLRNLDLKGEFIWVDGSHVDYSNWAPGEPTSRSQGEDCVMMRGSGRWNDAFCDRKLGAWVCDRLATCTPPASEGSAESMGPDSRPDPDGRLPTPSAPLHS ?
-0.225

Quick one: glycan array binding signal (z-score) for CLEC-1 (Homo sapiens), Q9NZH3 (protein) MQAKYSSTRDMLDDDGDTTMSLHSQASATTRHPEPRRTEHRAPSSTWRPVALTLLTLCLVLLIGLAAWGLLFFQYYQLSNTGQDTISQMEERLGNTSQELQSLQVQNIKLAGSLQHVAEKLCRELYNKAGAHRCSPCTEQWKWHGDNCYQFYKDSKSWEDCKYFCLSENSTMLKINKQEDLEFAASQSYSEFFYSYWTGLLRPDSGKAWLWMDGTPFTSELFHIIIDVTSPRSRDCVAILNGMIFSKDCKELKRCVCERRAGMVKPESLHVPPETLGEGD ?
0.112

Quick one: glycan array binding signal (z-score) for Codakine (Codakia orbicularis), Q3KVL7_9BIVA (protein) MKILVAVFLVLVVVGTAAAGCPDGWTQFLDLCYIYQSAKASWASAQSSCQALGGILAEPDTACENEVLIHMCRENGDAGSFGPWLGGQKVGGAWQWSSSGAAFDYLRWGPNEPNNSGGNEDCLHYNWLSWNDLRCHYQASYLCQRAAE ?
4.02
